// data source = patent US8119624B2

Each entry below carries its reported Emax.
Molecular target: Full-length glucokinase (beta cell isoform) (Homo sapiens)
Construct: Full-length glucokinase (beta cell isoform) was His-tagged at N-terminus; His tag (N); made in house
Assay: Glucokinase biochemical assay (PK/LDH-coupled, NADH depletion at 340 nm): % activation, EC50, % max activation
Conditions: 5 mM glucose; fitted maximum activation; read-out: % Max Activation
assay_readout: Emax

> print(dat)
                                   molecule  value.reported
1  COCC1(C)Cc2c(Oc3ccc(S(C)(=O)=O)c(F)c3)cc(C(=O)Nc3ccn(C)n3)cc2O1 (stereo not shown)            157%
2  Cc1ccc(NC(=O)c2cc(Oc3ccc(S(C)(=O)=O)cc3)c3cc(Cn4ccnc4C)oc3c2)nc1             41%
3  Cn1ccc(NC(=O)c2cc(Oc3cc(F)cc(F)c3)c3c(c2)OC(C)(C)C3)n1            265%
4  Cc1ccc(NC(=O)c2cc(Oc3ccc(S(C)(=O)=O)cc3)c3cc(C)oc3c2)nc1            107%

* * *

Each entry below carries its reported activation at 10 µM.
Biological target: Full-length glucokinase (beta cell isoform) (Homo sapiens, UniProt P35557)
Construct: Full-length glucokinase (beta cell isoform) was His-tagged at N-terminus; His tag (N); made in house
Sequence (P35557 whole entry, species assumed, canonical isoform): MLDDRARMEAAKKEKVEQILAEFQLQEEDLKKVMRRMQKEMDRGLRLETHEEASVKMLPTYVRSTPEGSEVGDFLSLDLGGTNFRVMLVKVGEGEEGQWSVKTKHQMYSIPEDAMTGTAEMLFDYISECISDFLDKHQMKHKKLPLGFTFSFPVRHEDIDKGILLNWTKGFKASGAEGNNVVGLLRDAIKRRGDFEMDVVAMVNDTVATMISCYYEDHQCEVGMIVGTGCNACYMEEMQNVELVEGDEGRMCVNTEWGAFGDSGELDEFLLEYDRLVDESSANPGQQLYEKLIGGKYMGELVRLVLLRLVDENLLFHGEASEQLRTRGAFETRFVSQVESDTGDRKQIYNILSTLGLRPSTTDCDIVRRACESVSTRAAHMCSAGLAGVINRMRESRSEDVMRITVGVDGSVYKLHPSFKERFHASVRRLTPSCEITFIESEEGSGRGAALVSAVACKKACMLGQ
Assay: Glucokinase biochemical assay (PK/LDH-coupled, NADH depletion at 340 nm): % activation, EC50, % max activation
Conditions: compound at 10 uM; 5 mM glucose, 1 mM ATP, room temperature; read-out: % Activation at 10 uM
assay_readout: activation at 10 µM (%)

> print(dat)
                               query.smiles                          target.or.system        assay.readout  unit.string  value.reported
1  Cc1ccc(NC(=O)c2cc(Oc3ccc(S(C)(=O)=O)cc3)c3c(c2)C(=O)N(CC(C)C)C3)nc1  Full-length glucokinase (beta cell isoform) (Homo sapiens, UniProt P35557)  activation at 10 µM            %              81
2  Cn1ccc(NC(=O)c2cc(OCc3ccccc3)c3c(c2)C(=O)N(C2CC2)C3)n1  Full-length glucokinase (beta cell isoform) (Homo sapiens, UniProt P35557)  activation at 10 µM            %            25.6
3  CC(C)CN1CCc2c(Oc3ccc(C(=O)N(C)C)c(F)c3)cc(C(=O)Nc3ccn(C)n3)cc2C1=O  Full-length glucokinase (beta cell isoform) (Homo sapiens, UniProt P35557)  activation at 10 µM            %            48.6
4  CC(C)N1Cc2c(Oc3ccc(S(C)(=O)=O)cc3)cc(C(=O)Nc3ccn(C)n3)cc2C1=O  Full-length glucokinase (beta cell isoform) (Homo sapiens, UniProt P35557)  activation at 10 µM            %            33.2
5  Cc1ccc(NC(=O)c2cc(Oc3ccc(S(C)(=O)=O)cc3)c3c(c2)C(=O)N(C)CC3)nc1  Full-length glucokinase (beta cell isoform) (Homo sapiens, UniProt P35557)  activation at 10 µM            %            28.9
6  COCCN1Cc2c(Oc3ccc(S(C)(=O)=O)cc3)cc(C(=O)Nc3ccn(C)n3)cc2C1=O  Full-length glucokinase (beta cell isoform) (Homo sapiens, UniProt P35557)  activation at 10 µM            %            39.7
7  Cn1ccc(NC(=O)c2cc(Oc3ccc(C(=O)N4CCCC4)nc3)c3c(c2)OC(C)(C)C3)n1  Full-length glucokinase (beta cell isoform) (Homo sapiens, UniProt P35557)  activation at 10 µM            %             128
